System: SN12C
measurementProtocol: cells
Format: cell-based
reportedConditions: Homo sapiens; SN12C (Renal Cancer)
recordedEndpoint: IC50
Include the unit after the number when you answer.

[Q] I have this compound here, O=c1[nH]ccc2nc(N3CCC(O)CC3)nc(Nc3cccc(C(F)(F)F)c3)c12 , and I need its recorded IC50.
[A] 12.9 µM

* * *

Tested on: DU-145
measurementProtocol: cells
Format: cell-based
reportedConditions: Homo sapiens; DU-145 (Prostate Cancer)
recordedEndpoint: pIC50
Scale: pIC50 equals -log10([C]), with [C] in mol/L.

[Q] What does the data say about its pIC50? Entry: O=c1[nH]ccc2nc(N3CCC(O)CC3)nc(Nc3cccc(C(F)(F)F)c3)c12
[A] 5.22

* * *

Test system: MDA-MB-435
measurementProtocol: cells
Type: cell-based
reportedConditions: Homo sapiens; MDA-MB-435 (Melanoma)
recordedEndpoint: IC50
In your response, put the unit directly after the numeric value.

[Q] Missing value: IC50, MDA-MB-435, entry O=c1[nH]ccc2nc(N3CCC(O)CC3)nc(Nc3cccc(C(F)(F)F)c3)c12 [Compound 6] . Fill in?
[A] 2570 nM

* * *

systemTested: truncated human JAK2 (Homo sapiens, UniProt O60674)
Construct: truncated human FAK, RET, FLT3, JAK2, and LRRK2 (CARNA BIOSCIENCES™)
Sequence (O60674 826-1132 limits assumed): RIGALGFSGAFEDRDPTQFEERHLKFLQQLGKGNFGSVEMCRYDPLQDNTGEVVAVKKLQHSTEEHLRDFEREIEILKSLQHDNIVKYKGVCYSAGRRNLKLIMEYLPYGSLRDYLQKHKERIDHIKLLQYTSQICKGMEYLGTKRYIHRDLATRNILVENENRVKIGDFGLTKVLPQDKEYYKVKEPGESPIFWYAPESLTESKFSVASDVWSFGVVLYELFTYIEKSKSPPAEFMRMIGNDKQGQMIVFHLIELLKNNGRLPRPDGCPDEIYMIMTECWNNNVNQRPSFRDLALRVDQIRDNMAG
measurementProtocol: Inhibition of enzymatic kinase activity (LANCE Ulight)
pIC50: −log10 of the molar value. Where a name gives a salt, the structure may show the parent alone.
// NOT MET strictly below 8 in pIC50; MET otherwise

COc1cc(Nc2nc(N3CCC(O)(CO)CC3)nc3cc[nH]c(=O)c23)cc(OC)c1; NOT MET
Cl.O=c1[nH]ccc2nc(N[C@H]3CCNC3)nc(Nc3ccc(N4CCOCC4)cc3)c12 [Compound 136, hydrochloride]; MET
O=c1[nH]ccc2nc(N3CCC(CO)CC3)nc(Nc3ccc(N4CCOCC4)cc3)c12; MET
O=c1[nH]ccc2nc(N3CCC(O)CC3)nc(Nc3ccc(N4CCOCC4)cc3)c12; MET
COc1cc(Nc2nc(N3CCC(O)CC3)nc3cc[nH]c(=O)c23)cc(OC)c1OC; NOT MET

[Q] API: above_or_equal(metric=pIC50, cutoff=8) for item O=c1[nH]ccc2nc(N[C@H]3CCNC3)nc(Nc3ccc(Oc4ccccc4)cc3)c12 [Compound 125, hydrochloride]
[A] NOT MET

[Q] Then COc1cc(Nc2nc(N3CCC(O)CC3)nc3cc[nH]c(=O)c23)cc(OC)c1 ?
[A] NOT MET

[Q] Another compound: COc1ccc(Nc2nc(N3CCC(O)CC3)nc3cc[nH]c(=O)c23)cc1C(F)(F)F
[A] NOT MET

* * *

systemTested: truncated human RET (Homo sapiens, UniProt P07949)
Construct: truncated human FAK, RET, FLT3, JAK2, and LRRK2 (CARNA BIOSCIENCES™)
Sequence (P07949 658-1114 limits assumed): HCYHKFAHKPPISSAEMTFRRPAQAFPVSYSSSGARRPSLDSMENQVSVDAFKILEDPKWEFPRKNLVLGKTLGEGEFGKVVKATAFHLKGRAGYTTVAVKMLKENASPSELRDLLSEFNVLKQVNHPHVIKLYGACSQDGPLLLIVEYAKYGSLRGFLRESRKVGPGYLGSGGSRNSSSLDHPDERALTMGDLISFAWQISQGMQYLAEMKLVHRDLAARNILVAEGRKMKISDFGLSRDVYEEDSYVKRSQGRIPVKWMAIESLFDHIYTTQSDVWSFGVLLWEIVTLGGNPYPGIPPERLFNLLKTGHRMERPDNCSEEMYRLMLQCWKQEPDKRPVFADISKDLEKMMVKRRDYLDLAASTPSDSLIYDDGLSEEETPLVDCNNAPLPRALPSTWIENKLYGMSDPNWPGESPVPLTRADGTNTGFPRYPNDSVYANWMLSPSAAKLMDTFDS
measurementProtocol: Inhibition of enzymatic kinase activity (LANCE Ulight)
Structures can show the parent of a compound that is named as a salt.
recordedEndpoint: pIC50
Scale note: pIC50 = -log10(concentration in M).

As a guide, the following entries are already answered.
COc1ccc(Nc2nc(N3CCC(O)CC3)nc3cc[nH]c(=O)c23)cc1C(F)(F)F [Compound 150]; 6.94
O=c1[nH]ccc2nc(N[C@H]3CCNC3)nc(Nc3ccc(Oc4ccccc4)cc3)c12 [Compound 125, hydrochloride]; 8.47
COc1cc(Nc2nc(N3CCC(O)(CO)CC3)nc3cc[nH]c(=O)c23)cc(OC)c1 [Compound 2]; 6.44

The record that follows has no pIC50 shown yet.
[Q] Fill in the recorded pIC50 for this compound, with truncated human RET (Homo sapiens, UniProt P07949) as test system: COc1cc(Nc2nc(N3CCC(O)CC3)nc3cc[nH]c(=O)c23)cc(OC)c1OC [Compound 149]
[A] 7.49

Source listed as patent US8404677B2.
